Recorded MIC50 by entry
Test system: Cryptococcus neoformans
Experiment: Antimicrobial activity against Cryptococcus neoformans var. grubii clinical isolate by broth microdilution method
Type: functional

// worked examples, MIC50 included
Compound | MIC50
CCC(C)n1ncn(-c2ccc(N3CCN(c4ccc(OCC5COC(Cn6cncn6)(c6ccc(Cl)cc6Cl)O5)cc4)CC3)cc2)c1=O (stereo not drawn) | 0.031 µg/mL
C[C@@H](c1ncncc1F)[C@](O)(Cn1cncn1)c1ccc(F)cc1F | 0.031 µg/mL

Then this compound:
Consider OC(Cn1cncn1)(Cn1cncn1)c1ccc(F)cc1F . Its measured MIC50 is 2 µg/mL

====

MIC50 reference
Tested on: Cryptococcus albidosimilis
Assay: Antimicrobial activity against Cryptococcus albidosimilis by broth microdilution method
Assay type: functional
Settings: Naganishia albidosimilis
Respond with the bare value in µg/mL.

Structure as smiles | Measurement target | Observation type | Test result
OC(Cn1cncn1)(Cn1cncn1)c1ccc(F)cc1F | Cryptococcus albidosimilis | MIC50 | 4
CC[C@@H]([C@H](C)O)n1ncn(-c2ccc(N3CCN(c4ccc(OC[C@@H]5CO[C@@](Cn6cncn6)(c6ccc(F)cc6F)C5)cc4)CC3)cc2)c1=O | Cryptococcus albidosimilis | MIC50 | 0.31

Input C[C@@H](c1nc(-c2ccc(C#N)cc2)cs1)[C@](O)(Cn1cncn1)c1cc(F)ccc1F . Output MIC50: 0.004

====

This listing pairs compounds with measured MIC90.
Test system: Naganishia albida
Assay: Antimicrobial activity against Cryptococcus albidus by broth microdilution method
Type: functional
Provide the reading as a plain figure in µg/mL.

Previously resolved entries follow.
Compound | MIC90 / µg/mL
Nc1nc(=O)[nH]cc1F [FLUCYTOSINE] | 8
C[C@@H](c1ncncc1F)[C@](O)(Cn1cncn1)c1ccc(F)cc1F [VORICONAZOLE] | 0.25
C[C@@H](c1nc(-c2ccc(C#N)cc2)cs1)[C@](O)(Cn1cncn1)c1cc(F)ccc1F [ISAVUCONAZOLE] | 0.016

Please find the next compound below.
Given item CC[C@@H]([C@H](C)O)n1ncn(-c2ccc(N3CCN(c4ccc(OC[C@@H]5CO[C@@](Cn6cncn6)(c6ccc(F)cc6F)C5)cc4)CC3)cc2)c1=O [POSACONAZOLE] , the value recorded as its MIC90 is 0.63

====

Reported MIC90 by item:
Tested on: Cryptococcus gattii species complex
Experiment: Antimicrobial activity against Cryptococcus gattii by broth microdilution method
Format: functional, Cryptococcus bacillisporus
Just so you know, I need the unit written after the number.

// worked examples, MIC90 included
Molecule | MIC90
CC[C@@H]([C@H](C)O)n1ncn(-c2ccc(N3CCN(c4ccc(OC[C@@H]5CO[C@@](Cn6cncn6)(c6ccc(F)cc6F)C5)cc4)CC3)cc2)c1=O [POSACONAZOLE] | 0.63 µg/mL
C[C@@H](c1ncncc1F)[C@](O)(Cn1cncn1)c1ccc(F)cc1F [VORICONAZOLE] | 0.25 µg/mL
Nc1nc(=O)[nH]cc1F [FLUCYTOSINE] | 8 µg/mL

Field MIC90 (entry OC(Cn1cncn1)(Cn1cncn1)c1ccc(F)cc1F [FLUCONAZOLE] ) reads 8 µg/mL

====

Test system: Cryptococcus neoformans
Assay: Antimicrobial activity against Cryptococcus neoformans var. grubii obtained from non-AIDS patient by broth microdilution method
Type: functional
Observation type: MIC50 (µg/mL)
Please reply with the bare figure in µg/mL and do not write the unit itself.

Reference set (3 entries):
Molecule | MIC50 / µg/mL
CCC(C)n1ncn(-c2ccc(N3CCN(c4ccc(OCC5COC(Cn6cncn6)(c6ccc(Cl)cc6Cl)O5)cc4)CC3)cc2)c1=O (stereo not given) | 0.031
CC[C@@H]([C@H](C)O)n1ncn(-c2ccc(N3CCN(c4ccc(OC[C@@H]5CO[C@@](Cn6cncn6)(c6ccc(F)cc6F)C5)cc4)CC3)cc2)c1=O | 0.063
C[C@@H](c1ncncc1F)[C@](O)(Cn1cncn1)c1ccc(F)cc1F | 0.063

// recorded MIC50 for Nc1nc(=O)[nH]cc1F : 2

molecule C[C@@H](c1nc(-c2ccc(C#N)cc2)cs1)[C@](O)(Cn1cncn1)c1cc(F)ccc1F , MIC50 observed: 0.008

====

Measured MIC90 of individual entries
Tested on: Naganishia albida
Test: Antimicrobial activity against Cryptococcus albidus by broth microdilution method
Assay type: functional
Please answer in the form of a number followed by its unit of measurement.

Some solved entries appear below for comparison.
Molecule | MIC90
C[C@@H]1[C@H](O)[C@@H](C)/C=C/C=C/C=C/C=C/C=C/C=C/C=C/[C@H](O[C@@H]2O[C@H](C)[C@@H](O)[C@H](N)[C@@H]2O)C[C@@H]2O[C@](O)(C[C@@H](O)C[C@@H](O)[C@H](O)CC[C@@H](O)C[C@@H](O)CC(=O)O[C@H]1C)C[C@H](O)[C@H]2C(=O)O | 0.5 µg/mL
CCC(C)n1ncn(-c2ccc(N3CCN(c4ccc(OCC5COC(Cn6cncn6)(c6ccc(Cl)cc6Cl)O5)cc4)CC3)cc2)c1=O (stereo not drawn) | 0.25 µg/mL

We now examine a further molecule.
Memo: OC(Cn1cncn1)(Cn1cncn1)c1ccc(F)cc1F , reported MIC90: 8 µg/mL

====

Listed here: items and their measured MIC90.
Tested on: Cryptococcus neoformans
Test: Antimicrobial activity against Cryptococcus neoformans var. grubii obtained from AIDS patient by broth microdilution method
Format: functional
I only need the number, in mg/L, no unit after it.

Compound | MIC90 [mg/L]
CC[C@@H]([C@H](C)O)n1ncn(-c2ccc(N3CCN(c4ccc(OC[C@@H]5CO[C@@](Cn6cncn6)(c6ccc(F)cc6F)C5)cc4)CC3)cc2)c1=O | 0.125

The reported MIC90 value, Cryptococcus neoformans, for CCC(C)n1ncn(-c2ccc(N3CCN(c4ccc(OCC5COC(Cn6cncn6)(c6ccc(Cl)cc6Cl)O5)cc4)CC3)cc2)c1=O (configuration not stated) reads 0.125

Hey, Cryptococcus neoformans data for Nc1nc(=O)[nH]cc1F : MIC90 came out at 8

Form field, MIC90 with Cryptococcus neoformans, item C[C@@H](c1nc(-c2ccc(C#N)cc2)cs1)[C@](O)(Cn1cncn1)c1cc(F)ccc1F : 0.016

The compound C[C@@H]1[C@H](O)[C@@H](C)/C=C/C=C/C=C/C=C/C=C/C=C/C=C/[C@H](O[C@@H]2O[C@H](C)[C@@H](O)[C@H](N)[C@@H]2O)C[C@@H]2O[C@](O)(C[C@@H](O)C[C@@H](O)[C@H](O)CC[C@@H](O)C[C@@H](O)CC(=O)O[C@H]1C)C[C@H](O)[C@H]2C(=O)O on Cryptococcus neoformans: MIC90 was 0.25

Observed MIC90 on Cryptococcus neoformans, entry OC(Cn1cncn1)(Cn1cncn1)c1ccc(F)cc1F , equals 2

Sample C[C@@H](c1ncncc1F)[C@](O)(Cn1cncn1)c1ccc(F)cc1F , system: Cryptococcus neoformans. Its MIC90 is 0.125

====

The entries below are paired with their reported log10(MIC50).
Test system: Cryptococcus gattii species complex
Test: Antimicrobial activity against Cryptococcus gattii by broth microdilution method
Type: functional, Cryptococcus bacillisporus
Scale: decimal log of MIC50, MIC50 in µg/mL.

Worked cases, log10(MIC50) given:
Molecule | log10(MIC50)
CC[C@@H]([C@H](C)O)n1ncn(-c2ccc(N3CCN(c4ccc(OC[C@@H]5CO[C@@](Cn6cncn6)(c6ccc(F)cc6F)C5)cc4)CC3)cc2)c1=O | -0.51
C[C@@H]1[C@H](O)[C@@H](C)/C=C/C=C/C=C/C=C/C=C/C=C/C=C/[C@H](O[C@@H]2O[C@H](C)[C@@H](O)[C@H](N)[C@@H]2O)C[C@@H]2O[C@](O)(C[C@@H](O)C[C@@H](O)[C@H](O)CC[C@@H](O)C[C@@H](O)CC(=O)O[C@H]1C)C[C@H](O)[C@H]2C(=O)O | -0.60
CCC(C)n1ncn(-c2ccc(N3CCN(c4ccc(OCC5COC(Cn6cncn6)(c6ccc(Cl)cc6Cl)O5)cc4)CC3)cc2)c1=O (configuration not stated) | -1.20
OC(Cn1cncn1)(Cn1cncn1)c1ccc(F)cc1F | 0.60
C[C@@H](c1ncncc1F)[C@](O)(Cn1cncn1)c1ccc(F)cc1F | -1.20

# log10(MIC50) (molecule: Nc1nc(=O)[nH]cc1F ) is 0.60

The value of log10(MIC50) measured for the molecule C[C@@H](c1nc(-c2ccc(C#N)cc2)cs1)[C@](O)(Cn1cncn1)c1cc(F)ccc1F turned out to be -2.40

====

# MIC50 per entry
Tested on: Cryptococcus neoformans
Assay: Antimicrobial activity against Cryptococcus neoformans var. grubii clinical isolate by broth microdilution method
Type: functional
Kindly provide the numeric value in µg/mL only, without the unit symbol.

Structure as smiles | Measure unit | MIC50
C[C@@H](c1nc(-c2ccc(C#N)cc2)cs1)[C@](O)(Cn1cncn1)c1cc(F)ccc1F | µg/mL | 0.004

Reported MIC50 ( Nc1nc(=O)[nH]cc1F ) = 4

The compound listed as CC[C@@H]([C@H](C)O)n1ncn(-c2ccc(N3CCN(c4ccc(OC[C@@H]5CO[C@@](Cn6cncn6)(c6ccc(F)cc6F)C5)cc4)CC3)cc2)c1=O shows MIC50 equal to 0.004

get_value(item= C[C@@H]1[C@H](O)[C@@H](C)/C=C/C=C/C=C/C=C/C=C/C=C/C=C/[C@H](O[C@@H]2O[C@H](C)[C@@H](O)[C@H](N)[C@@H]2O)C[C@@H]2O[C@](O)(C[C@@H](O)C[C@@H](O)[C@H](O)CC[C@@H](O)C[C@@H](O)CC(=O)O[C@H]1C)C[C@H](O)[C@H]2C(=O)O , readout=MIC50) returns 0.25
